The values you see were collected from ChEMBL document CHEMBL3991601.

The source made the active and inactive calls.
Give measured Kd for each item. Keep answers brief.

Quote Kd with test system Tyrosine-protein kinase Fer (Homo sapiens, UniProt P16591) for CCN1CCN(Cc2ccc(-c3cc4c(N[C@H](C)c5ccccc5)ncnc4[nH]3)cc2)CC1 [AEE-788] > 30 µM (inactive)

Quote Kd with test system Tyrosine-protein kinase Fer (Homo sapiens, UniProt P16591) for OCCn1cc(-c2cnc3nnn(Cc4ccc5ncccc5c4)c3n2)cn1 [PF-04217903] > 30 µM (inactive)

Quote Kd with test system Tyrosine-protein kinase Fer (Homo sapiens, UniProt P16591) for C=CC(=O)N1CCC(Oc2cc3c(Nc4ccc(Cl)c(Cl)c4F)ncnc3cc2OC)CC1 [POZIOTINIB] > 30 µM (inactive)

Quote Kd with test system Tyrosine-protein kinase Fer (Homo sapiens, UniProt P16591) for CC(=O)Nc1cccc(-n2c(=O)n(C3CC3)c(=O)c3c(Nc4ccc(I)cc4F)n(C)c(=O)c(C)c32)c1 [TRAMETINIB] > 30 µM (inactive)

Quote Kd with test system Tyrosine-protein kinase Fer (Homo sapiens, UniProt P16591) for CNC(=O)CN1CCC(Oc2cc3c(Nc4cccc(Cl)c4F)ncnc3cc2OC)CC1 [SAPITINIB] > 30 µM (inactive)

Quote Kd with test system Tyrosine-protein kinase Fer (Homo sapiens, UniProt P16591) for Cc1ccc(-n2nc(C(C)(C)C)cc2NC(=O)NCc2cc(F)ccc2Oc2ccc3c(cnn3CCO)c2)cc1 [PEXMETINIB] > 30 µM (inactive)

Quote Kd with test system Tyrosine-protein kinase Fer (Homo sapiens, UniProt P16591) for Cn1cc(-c2ccc3nnc(C(F)(F)c4ccc5ncccc5c4)n3n2)cn1 [JNJ-38877605] > 30 µM (inactive)

Quote Kd with test system Tyrosine-protein kinase Fer (Homo sapiens, UniProt P16591) for Cn1cc(-c2ccc(F)c(C(F)(F)F)c2)nc1C1CCN(c2ncnc3[nH]ncc23)CC1 [LY-2584702] > 30 µM (inactive)

---

The source made the active and inactive calls.
readout: Kd

Quote Kd with test system Proto-oncogene tyrosine-protein kinase receptor Ret (Homo sapiens) for CCS(=O)(=O)N1CC(CC#N)(n2cc(-c3ncnc4[nH]ccc34)cn2)C1 0.973 µM (active)

Quote Kd with test system Proto-oncogene tyrosine-protein kinase receptor Ret (Homo sapiens) for C[C@@H]1CN(Cc2ccc(F)cc2)[C@@H](C)CN1C(=O)c1cc2c(C(=O)C(=O)N(C)C)cn(C)c2cc1Cl > 30 µM (inactive)

Quote Kd with test system Proto-oncogene tyrosine-protein kinase receptor Ret (Homo sapiens) for Cn1cc(-c2ccc(F)c(C(F)(F)F)c2)nc1C1CCN(c2ncnc3[nH]ncc23)CC1 > 30 µM (inactive)

Quote Kd with test system Proto-oncogene tyrosine-protein kinase receptor Ret (Homo sapiens) for O=C1NC(=O)/C(=C/c2ccc3nccc(-c4ccncc4)c3c2)S1 > 30 µM (inactive)

Quote Kd with test system Proto-oncogene tyrosine-protein kinase receptor Ret (Homo sapiens) for O=C(Nc1ccc(-c2ccnc(Nc3ccc(N4CCOCC4)cc3)n2)cc1)C1CCCN1 (configuration not stated) 1.33 µM (active)

Quote Kd with test system Proto-oncogene tyrosine-protein kinase receptor Ret (Homo sapiens) for C[C@@H](c1ccc2nccn2c1)n1nnc2ncc(-c3cnn(C)c3)nc21 > 30 µM (inactive)

Quote Kd with test system Proto-oncogene tyrosine-protein kinase receptor Ret (Homo sapiens) for CN1CC[C@@H](c2c(O)cc(O)c3c(=O)cc(-c4ccccc4Cl)oc23)[C@@H]1CO > 30 µM (inactive)

Quote Kd with test system Proto-oncogene tyrosine-protein kinase receptor Ret (Homo sapiens) for COCCNCc1ccc(-c2cc3nccc(Oc4ccc(NC(=S)NC(=O)Cc5ccc(F)cc5)cc4F)c3s2)nc1 > 30 µM (inactive)

Quote Kd with test system Proto-oncogene tyrosine-protein kinase receptor Ret (Homo sapiens) for C[C@@H](Nc1cc(F)cc(F)c1)c1cc(C(=O)N(C)C)cc2c(=O)cc(N3CCOCC3)oc12 > 30 µM (inactive)

Quote Kd with test system Proto-oncogene tyrosine-protein kinase receptor Ret (Homo sapiens) for C1=C/COCc2cc(ccc2OCCN2CCCC2)Nc2nccc(n2)-c2cccc(c2)COC/1 > 30 µM (inactive)

Quote Kd with test system Proto-oncogene tyrosine-protein kinase receptor Ret (Homo sapiens) for CC[C@H](Nc1ncnc2[nH]cnc12)c1nc2cccc(F)c2c(=O)n1-c1ccccc1 > 30 µM (inactive)

Quote Kd with test system Proto-oncogene tyrosine-protein kinase receptor Ret (Homo sapiens) for CNS(=O)(=O)Nc1nccc(Cc2c(C)c3ccc(Oc4ncccn4)cc3oc2=O)c1F > 30 µM (inactive)

Quote Kd with test system Proto-oncogene tyrosine-protein kinase receptor Ret (Homo sapiens) for CN1CCC(COc2cnc(-c3cccc(Cn4nc(-c5cccc(C#N)c5)ccc4=O)c3)nc2)CC1 > 30 µM (inactive)

Quote Kd with test system Proto-oncogene tyrosine-protein kinase receptor Ret (Homo sapiens) for Cc1ccc(NC(=O)c2ccc(CN3CC[C@H](N(C)C)C3)c(C(F)(F)F)c2)cc1Nc1nccc(-c2cncnc2)n1 2.42 µM (active)

Quote Kd with test system Proto-oncogene tyrosine-protein kinase receptor Ret (Homo sapiens) for Cc1c(F)cc(C(=O)NC2CC2)cc1-c1ccc(C(=O)NCC(C)(C)C)cn1 > 30 µM (inactive)

Quote Kd with test system Proto-oncogene tyrosine-protein kinase receptor Ret (Homo sapiens) for Cc1cc2c(F)c(Oc3ncnn4cc(OC[C@@H](C)OC(=O)[C@H](C)N)c(C)c34)ccc2[nH]1 [BRIVANIB ALANINATE] 7.48 µM (active)

Quote Kd with test system Proto-oncogene tyrosine-protein kinase receptor Ret (Homo sapiens) for COc1ccc(-c2ccc3c(N4CCOC[C@@H]4C)nc(N4CCOC[C@@H]4C)nc3n2)cc1CO > 30 µM (inactive)

---

Biological target: Phenylalanine--tRNA ligase beta subunit (Homo sapiens); also: in the data inactive means no Kd found up to 30 µM
Sequence (Q9NSD9 whole entry): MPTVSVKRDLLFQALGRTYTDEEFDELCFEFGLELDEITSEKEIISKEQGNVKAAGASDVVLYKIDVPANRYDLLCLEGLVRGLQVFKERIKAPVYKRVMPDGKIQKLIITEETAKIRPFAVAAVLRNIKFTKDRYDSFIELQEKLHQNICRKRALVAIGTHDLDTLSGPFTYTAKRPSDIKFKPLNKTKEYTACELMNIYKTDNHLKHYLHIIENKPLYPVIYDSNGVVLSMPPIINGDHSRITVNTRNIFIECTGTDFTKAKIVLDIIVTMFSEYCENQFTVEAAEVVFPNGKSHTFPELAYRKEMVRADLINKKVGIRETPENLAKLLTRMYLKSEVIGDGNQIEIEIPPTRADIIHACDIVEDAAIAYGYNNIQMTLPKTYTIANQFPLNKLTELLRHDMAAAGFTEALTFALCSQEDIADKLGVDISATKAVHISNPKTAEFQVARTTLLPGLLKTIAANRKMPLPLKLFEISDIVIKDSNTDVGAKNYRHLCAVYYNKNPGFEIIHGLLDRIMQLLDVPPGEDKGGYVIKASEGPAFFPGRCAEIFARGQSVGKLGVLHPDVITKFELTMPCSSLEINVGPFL
Active and inactive are the calls of the source.
readout: Kd

Read off the recorded Kd for CCN1CCN(Cc2ccc(-c3cc4c(N[C@H](C)c5ccccc5)ncnc4[nH]3)cc2)CC1 > 30 µM (inactive)

Read off the recorded Kd for COCCNCc1ccc(-c2cc3nccc(Oc4ccc(NC(=S)NC(=O)Cc5ccc(F)cc5)cc4F)c3s2)nc1 > 30 µM (inactive)

Read off the recorded Kd for OCCn1cc(-c2cnc3nnn(Cc4ccc5ncccc5c4)c3n2)cn1 > 30 µM (inactive)

Read off the recorded Kd for Cc1c(F)cc(C(=O)NC2CC2)cc1-c1ccc(C(=O)NCC(C)(C)C)cn1 > 30 µM (inactive)

Read off the recorded Kd for CN1N=C(N)c2cn([C@@H]3O[C@H](COP(=O)(O)O)[C@@H](O)[C@H]3O)c3ncnc1c23 [TRICIRIBINE PHOSPHATE] > 30 µM (inactive)

Read off the recorded Kd for CNS(=O)(=O)Nc1nccc(Cc2c(C)c3ccc(Oc4ncccn4)cc3oc2=O)c1F > 30 µM (inactive)

Read off the recorded Kd for C[C@@H]1CN(Cc2ccc(F)cc2)[C@@H](C)CN1C(=O)c1cc2c(C(=O)C(=O)N(C)C)cn(C)c2cc1Cl > 30 µM (inactive)

Read off the recorded Kd for COc1cc(CCc2cc(NC(=O)c3ccc(N4C[C@@H](C)N[C@@H](C)C4)cc3)n[nH]2)cc(OC)c1 > 30 µM (inactive)

---

biological target: Serine/threonine-protein kinase Chk1 (Homo sapiens, UniProt O14757); also: in the data inactive means no Kd found up to 30 µM
Sequence (O14757 whole entry): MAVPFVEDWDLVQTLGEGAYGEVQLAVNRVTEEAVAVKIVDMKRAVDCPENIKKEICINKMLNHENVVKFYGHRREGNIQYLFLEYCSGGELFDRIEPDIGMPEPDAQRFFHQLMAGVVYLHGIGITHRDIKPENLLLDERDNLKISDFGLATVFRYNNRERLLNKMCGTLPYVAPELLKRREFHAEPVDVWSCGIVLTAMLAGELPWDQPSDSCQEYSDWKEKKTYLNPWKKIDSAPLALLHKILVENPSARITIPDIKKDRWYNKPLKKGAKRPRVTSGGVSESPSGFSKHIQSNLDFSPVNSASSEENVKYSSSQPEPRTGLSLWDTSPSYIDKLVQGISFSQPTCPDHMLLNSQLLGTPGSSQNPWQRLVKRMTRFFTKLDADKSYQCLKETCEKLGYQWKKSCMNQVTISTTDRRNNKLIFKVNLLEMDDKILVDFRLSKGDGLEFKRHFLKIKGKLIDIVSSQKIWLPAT
Calls of active or inactive are those of the source.
I would appreciate it if you answered using one of these outcomes: 1 = active, 0 = inactive

Just curious, what result did COc1cc(CCc2cc(NC(=O)c3ccc(N4C[C@@H](C)N[C@@H](C)C4)cc3)n[nH]2)cc(OC)c1 get here? 0

Just curious, what result did COC(=O)[C@@]1(O)C[C@H]2O[C@]1(C)n1c3ccccc3c3c4c(c5c6ccccc6n2c5c31)C(=O)NC4 [K-252A] get here? 1

Just curious, what result did CN(C)C(=O)c1cc2cnc(Nc3ccc(N4CCNCC4)cn3)nc2n1C1CCCC1 get here? 0

Just curious, what result did Cc1cc2c(F)c(Oc3ncnn4cc(OC[C@@H](C)OC(=O)[C@H](C)N)c(C)c34)ccc2[nH]1 [BRIVANIB ALANINATE] get here? 0

Just curious, what result did CNC(=O)CN1CCC(Oc2cc3c(Nc4cccc(Cl)c4F)ncnc3cc2OC)CC1 get here? 0

Just curious, what result did C=CC(=O)N1CCC(Oc2cc3c(Nc4ccc(Cl)c(Cl)c4F)ncnc3cc2OC)CC1 get here? 0

Just curious, what result did O=C1NC(=O)/C(=C/c2ccc3nccc(-c4ccncc4)c3c2)S1 get here? 0

Just curious, what result did Cc1c(F)cc(C(=O)NC2CC2)cc1-c1ccc(C(=O)NCC(C)(C)C)cn1 get here? 0

Just curious, what result did COc1ccc(-c2ccc3c(N4CCOC[C@@H]4C)nc(N4CCOC[C@@H]4C)nc3n2)cc1CO get here? 0

Just curious, what result did Cn1cc(-c2ccc(F)c(C(F)(F)F)c2)nc1C1CCN(c2ncnc3[nH]ncc23)CC1 get here? 0

Just curious, what result did Cc1cc(-c2cc(O)ccc2Cl)cc2nnc(Nc3ccc(OCCN4CCCC4)cc3)nc12 get here? 0

Just curious, what result did CC[C@H](Nc1ncnc2[nH]cnc12)c1nc2cccc(F)c2c(=O)n1-c1ccccc1 get here? 0

Just curious, what result did O=C(c1ccc(F)c(F)c1Nc1ccc(I)cc1F)N1CC(O)([C@@H]2CCCCN2)C1 get here? 0

Just curious, what result did COCCNCc1ccc(-c2cc3nccc(Oc4ccc(NC(=S)NC(=O)Cc5ccc(F)cc5)cc4F)c3s2)nc1 get here? 0

Just curious, what result did CCS(=O)(=O)N1CC(CC#N)(n2cc(-c3ncnc4[nH]ccc34)cn2)C1 get here? 0

Just curious, what result did COC(=O)N[C@@H](C)CNc1nccc(-c2cn(C(C)C)nc2-c2cc(Cl)cc(NS(C)(=O)=O)c2F)n1 get here? 0
